# assay.system: T1, human CTLA4 on CHO cells (human, UniProt P16410 36-223)
# T1 construct: whole, on cells; CHO cells stably expressing CTLA4; also called huCTLA4
# T1 sequence (P16410 36-223): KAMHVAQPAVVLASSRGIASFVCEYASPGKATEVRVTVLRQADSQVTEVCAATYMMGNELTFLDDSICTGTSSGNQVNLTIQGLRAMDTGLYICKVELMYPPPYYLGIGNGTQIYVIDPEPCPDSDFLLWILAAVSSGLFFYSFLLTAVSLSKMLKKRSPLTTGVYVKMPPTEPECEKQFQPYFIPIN
# assay.explanation: flow cytometry, CHO/CTLA4 cells; MFI relative to WT CD80
quantity.measured: Fold change to WT CD80 (fold)

variant CD80 IgV-Fc M43I/M47L/A71G (Fc fusion, not shown: a dimerising Fc or GST) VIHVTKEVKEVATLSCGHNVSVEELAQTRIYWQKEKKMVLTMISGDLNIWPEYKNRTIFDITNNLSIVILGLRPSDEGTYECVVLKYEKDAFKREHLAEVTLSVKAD: 12.2
variant CD80 IgV-Fc H18Y/E35D (Fc fusion, not shown: a dimerising Fc or GST) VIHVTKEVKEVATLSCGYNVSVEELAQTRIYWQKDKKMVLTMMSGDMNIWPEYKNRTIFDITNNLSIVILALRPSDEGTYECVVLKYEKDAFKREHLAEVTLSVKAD: 13.7
variant CD80 IgV-Fc E35D/M47V (Fc fusion, not shown: a dimerising Fc or GST) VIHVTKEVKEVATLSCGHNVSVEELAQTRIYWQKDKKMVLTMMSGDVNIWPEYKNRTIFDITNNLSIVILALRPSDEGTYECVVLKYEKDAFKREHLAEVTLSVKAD: 10.9
variant CD80 IgV-Fc V22A/E35D/M47L/A71G (Fc fusion, not shown: a dimerising Fc or GST) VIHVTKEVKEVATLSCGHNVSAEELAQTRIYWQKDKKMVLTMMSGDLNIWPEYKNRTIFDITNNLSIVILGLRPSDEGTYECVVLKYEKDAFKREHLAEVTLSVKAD: 11.4
variant CD80 IgV-Fc M47I/A71G (Fc fusion, not shown: a dimerising Fc or GST) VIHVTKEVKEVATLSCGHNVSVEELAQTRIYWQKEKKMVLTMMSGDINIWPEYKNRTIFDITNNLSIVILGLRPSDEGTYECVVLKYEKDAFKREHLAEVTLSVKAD: 14.5
variant CD80 IgV-Fc E35D/D46E/A91G (Fc fusion, not shown: a dimerising Fc or GST) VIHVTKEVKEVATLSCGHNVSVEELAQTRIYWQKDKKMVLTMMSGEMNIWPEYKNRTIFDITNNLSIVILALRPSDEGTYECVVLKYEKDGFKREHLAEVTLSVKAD: 16.8
variant CD80 IgV-Fc E35D/M47I/N48K/I61F (Fc fusion, not shown: a dimerising Fc or GST) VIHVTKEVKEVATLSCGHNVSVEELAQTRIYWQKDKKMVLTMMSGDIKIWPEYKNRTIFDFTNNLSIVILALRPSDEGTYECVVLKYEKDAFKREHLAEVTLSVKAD: 13.5
CD80 WT IgV-Fc (Fc fusion, not shown: a dimerising Fc or GST, also called WT CD80 IgV-Fc; wild-type CD80 IgV-Fc) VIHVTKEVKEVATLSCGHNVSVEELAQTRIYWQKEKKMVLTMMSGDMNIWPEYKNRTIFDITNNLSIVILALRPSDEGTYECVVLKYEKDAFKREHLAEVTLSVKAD: 1
